Data origin, for the record: patent US6310095A

Below, each entry is listed with its recorded % inhibition of farnesyltransferase.
- STUDY TARGET: protein farnesyltransferase (Rattus norvegicus, UniProt Q02293+Q04631)
- Construct: Rat brain protein farnesyltransferase activity is measured; from tissue; host or cells: rat brain; purified according to Reiss et al., Cell 62:81-88 (1990), steps one through three
- METHOD SUMMARY: in vitro inhibition of protein farnesyltransferase (scintillation proximity assay, biotin-K Ras B fragment)
- Assay type: biochemical
- STUDY CONDITIONS: at 1 × 10^-6 M
OBSERVED PROPERTY: % inhibition of farnesyltransferase (%)

CSCC[C@H](NC(=O)c1ccc(C=Cc2ccccc2Cc2ccccc2)cc1-c1ccccc1C)C(=O)[O-].[Li+] [Example 457]
92
CSCC[C@H](NC(=O)c1ccc(OCCC23CC4CC(CC(C4)C2)C3)cc1-c1ccccc1C)C(=O)O [Example 553]
92
CSCC[C@H](NC(=O)c1ccc(CN2CCC(OCc3ccccc3)C2)cc1-c1ccccc1C)C(=O)O (stereo partly shown) [Example 988]
92
CSCC[C@H](NC(=O)c1ccc(COCc2ccc(-c3ccc(F)cc3)o2)cc1-c1cccc2ccccc12)C(=O)[O-].[Li+] [Example 868]
89

###

- STUDY TARGET: protein farnesyltransferase (Rattus norvegicus, UniProt Q02293+Q04631)
- Construct: Rat brain protein farnesyltransferase activity is measured; from tissue; host or cells: rat brain; purified according to Reiss et al., Cell 62:81-88 (1990), steps one through three
- METHOD SUMMARY: in vitro inhibition of protein farnesyltransferase (scintillation proximity assay, biotin-K Ras B fragment)
- Format: biochemical
- STUDY CONDITIONS: at 1 × 10^-7 M
Below, each entry is listed with its recorded % inhibition of farnesyltransferase.
OBSERVED PROPERTY: % inhibition of farnesyltransferase (%)

CSCC[C@H](NC(=O)c1ccc(COCc2cnc(-c3ccc(Cl)cc3)o2)cc1-c1ccccc1C)C(=O)[O-].[Li+]
89
CSCC[C@H](NC(=O)c1ccc(COCCc2ccc(-c3ccc(F)cc3)o2)cc1-c1ccccc1C)C(=O)[O-].[Li+]
89
CSCC[C@H](NC(=O)c1ccc(COCc2cc3ccccc3o2)cc1-c1ccccc1C)C(=O)[O-].[Li+]
91
CSCC[C@H](NC(=O)c1ccc(CCc2ccc(Oc3ccccc3Cl)cc2)cc1-c1ccccc1C)C(=O)O
92

###

Below, each entry is listed with its recorded inhibition at 1 µM.
- STUDY TARGET: protein farnesyltransferase (Rattus norvegicus, UniProt Q02293+Q04631)
- Construct: Rat brain protein farnesyltransferase activity is measured; from tissue; host or cells: rat brain; purified according to Reiss et al., Cell 62:81-88 (1990), steps one through three
- METHOD SUMMARY: in vitro inhibition of protein farnesyltransferase (scintillation proximity assay, biotin-K Ras B fragment)
- Type: biochemical
- STUDY CONDITIONS: at 1 × 10^-6 M; read-out: % inhibition of farnesyltransferase
Where a name gives a salt, the structure may show the parent alone.
OBSERVED PROPERTY: inhibition at 1 µM (%)

CSCC[C@H](NC(=O)c1ccc(CNc2ccccc2C(N)=O)cc1-c1ccccc1)C(=O)O [Example 644]
54
CSCC[C@H](NC(=O)c1ccc(CN(Cc2ccccc2)Cc2cccc(Oc3ccccc3)c2)cc1-c1ccccc1C)C(=O)O [Example 514, lithium salt]
94
CSCC[C@H](NC(=O)c1ccc(CN(Cc2cncs2)S(C)(=O)=O)cc1-c1ccccc1C)C(=O)O [Example 878]
95
CSCC[C@H](NC(=O)c1ccc(CN(Cc2ccccc2)Cc2ccccc2)cc1-c1ccccc1)C(=O)O [Example 834, lithium salt]
55
CSCC[C@H](NC(=O)c1ccc(NC[C@@H]2CSCN2)cc1-c1ccccc1)C(=O)O [Example 166, hydrochloride]
97
CSCC[C@H](NC(=O)c1ccc(NC(=O)[C@@H]2CSCN2)cc1-c1ccccc1)C(=O)O [Example 165]
74
CSCC[C@H](NC(=O)c1ccc(CN(CCCc2ccccc2)c2ccccc2)cc1-c1ccccc1C)C(=O)O [Example 508]
95
CSCC[C@H](NC(=O)c1ccc(NC(=O)C[C@H]2C[C@@H](C(C)=O)C2(C)C)cc1-c1ccccc1)C(=O)O [Example 751]
32
CSCC[C@H](NC(=O)c1ccc(CN[C@@H](CC2CCCCC2)[C@@H](O)[C@@H](O)CC(C)C)cc1-c1ccccc1)C(=O)O [Example 716]
69
CSCC[C@H](NC(=O)c1ccc(CN(C(=O)c2ccccc2)C(CC2CCCCC2)CC2CCCCC2)cc1-c1ccccc1C)C(=O)O [Example 910]
42
COc1ccccc1CCC(=O)Nc1ccc(C(=O)N[C@@H](CCSC)C(=O)O)c(-c2ccccc2C)c1 [Example 544, lithium salt]
35
CSCC[C@H](NC(=O)c1ccc(CN(CCO)c2ccccc2)cc1-c1ccccc1)C(=O)O [Example 505]
72
CSCC[C@H](NC(=O)c1ccc(CNc2cccc(I)c2)cc1-c1ccccc1)C(=O)O [Example 677]
37
CSCC[C@H](NC(=O)c1ccc(CNCCSc2ccccc2)cc1-c1ccccc1)C(=O)O [Example 667]
83
COC(=O)[C@H](CCSC)NC(=O)c1ccc(NC(=O)[C@@H]2CSCN2)cc1-c1ccccc1 [Example 164, hydrochloride]
92
CSCC[C@H](NC(=O)c1ccc(CNCCS)cc1-c1ccccc1)C(=O)O [Example 626]
61
CSCC[C@H](NC(=O)c1ccc(NCC(CO)Cc2ccccc2)cc1-c1ccccc1C)C(=O)O (some centres unmarked) [Example 476]
91

###

- STUDY TARGET: protein farnesyltransferase (Rattus norvegicus, UniProt Q02293+Q04631)
- Construct: Rat brain protein farnesyltransferase activity is measured; from tissue; host or cells: rat brain; purified according to Reiss et al., Cell 62:81-88 (1990), steps one through three
- METHOD SUMMARY: in vitro inhibition of protein farnesyltransferase (scintillation proximity assay, biotin-K Ras B fragment)
- Assay type: biochemical
- STUDY CONDITIONS: at 1 × 10^-6 M
OBSERVED PROPERTY: % inhibition of farnesyltransferase

CSCC[C@H](NC(=O)c1ccc(S(=O)(=O)N(Cc2ccccc2)c2ccccc2)cc1-c1ccccc1C)C(=O)[O-].[Li+] [Example 768]
67%
CSCC[C@H](NC(=O)c1ccc(CN2CCN(C(=O)OC(C)(C)C)CC2)cc1-c1ccccc1C)C(=O)O [Example 866]
62%
CSCC[C@H](NC(=O)c1ccc(-c2ccc(-c3ccccc3)cc2)cc1-c1ccccc1C)C(=O)[O-].[Li+] [Example 788]
44%
CSCC[C@H](NC(=O)c1ccc(COCCc2ccccc2)cc1-c1ccccc1C)C(=O)[O-].[Li+] [Example 587]
97%
CSCC[C@H](NC(=O)c1ccc(COCC2CCCO2)cc1-c1ccccc1)C(=O)O (stereo partly shown) [Example 288]
22%
CSCC[C@H](NC(=O)c1ccc(CN(C)C(C)(C)Cc2ccccc2)cc1-c1ccccc1C)C(=O)O [Example 309]
98%
CSCC[C@H](NC(=O)c1ccc(CCCc2ccc3ccccc3c2)cc1-c1ccccc1C)C(=O)[O-].[Li+] [Example 470]
95%

###

- STUDY TARGET: protein farnesyltransferase (Rattus norvegicus, UniProt Q02293+Q04631)
- Construct: Rat brain protein farnesyltransferase activity is measured; from tissue; host or cells: rat brain; purified according to Reiss et al., Cell 62:81-88 (1990), steps one through three
- METHOD SUMMARY: in vitro inhibition of protein farnesyltransferase (scintillation proximity assay, biotin-K Ras B fragment)
- Assay type: biochemical
- STUDY CONDITIONS: at 1 × 10^-6 M
OBSERVED PROPERTY: % inhibition of farnesyltransferase (%)

CSCC[C@H](NC(=O)c1ccc(COCCCc2ccccc2)cc1-c1ccccc1C)C(=O)[O-].[Li+]
97
CSCC[C@H](NC(=O)c1ccc(CN(C(C)C)C2(Cc3ccccc3)CCC2)cc1-c1ccccc1C)C(=O)O
98
CSCC[C@H](NC(=O)c1cc(Cc2ccccc2)c(COCc2ccco2)cc1-c1ccccc1C)C(=O)O
77
CSCC[C@H](NC(=O)c1ccc(CN(C(C)C)C2(CC3CCCCC3)CCCC2)cc1-c1ccccc1C)C(=O)O
95
CSCC[C@H](NC(=O)c1ccc(CN(C2CC2)C2(CC3CCCCC3)CCC2)cc1-c1ccccc1C)C(=O)O
98
CSCC[C@H](NC(=O)c1ccc(OCCOc2ccccc2)cc1-c1ccccc1C)C(=O)O
91
CSCC[C@H](NC(=O)c1ccc(SCCc2ccccc2)cc1-c1ccccc1C)C(=O)O
98
CSCC[C@H](NC(=O)c1ccc(COCc2ccc(CN(C)C)o2)cc1-c1ccccc1C)C(=O)O
96
CSCC[C@H](NC(=O)c1ccc(/C=C/c2ccccc2)cc1-c1ccccc1C)C(=O)O
53
CSCC[C@H](NC(=O)c1ccc(CN2CCC[C@H]2COCc2ccccc2)cc1-c1ccccc1C)C(=O)O
90
CSCC[C@H](NC(=O)c1ccc(CCc2cccc3ccccc23)cc1-c1ccccc1C)C(=O)[O-].[Li+]
97
CSCC[C@H](NC(=O)c1ccc(COCCC23CC4CC(CC(C4)C2)C3)cc1-c1ccccc1C)C(=O)O
98
CSCC[C@H](NC(=O)c1ccc(/C=C/c2cnccn2)cc1-c1ccccc1C)C(=O)O
95
CSCC[C@H](NC(=O)c1ccc(C=CCc2ccc3ccccc3c2)cc1-c1ccccc1C)C(=O)O
93
CSCC[C@H](NC(=O)c1ccc(COCc2ccoc2)cc1-c1ccccc1C)C(=O)O
94
CSCC[C@H](NC(=O)c1ccc(CN2C(=O)OC[C@@H]2CC2CCCCC2)cc1-c1ccccc1C)C(=O)O
99
